MEASUREMENT TARGET: T1, extracellular domain of rhesus monkey BCMA (rhesus monkey, UniProt F7FFA0 1-53)
T1 construct: extracellular domain; also called RhBCMA
T1 sequence (F7FFA0 entry or part of it): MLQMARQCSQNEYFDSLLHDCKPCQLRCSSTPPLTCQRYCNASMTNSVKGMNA
PROTOCOL TEXT: Octet BLI; Fab 200 nM
pKd: −log10 of the molar value.
Listed binders paired with reported pKd

| BINDER | pKd |
| --- | --- |
| AB200-R1a-Fab_Vk17 (Fab, V domains shown) VH: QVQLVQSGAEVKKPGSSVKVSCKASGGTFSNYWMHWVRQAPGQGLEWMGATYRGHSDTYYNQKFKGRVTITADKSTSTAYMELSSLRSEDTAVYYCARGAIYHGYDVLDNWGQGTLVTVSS VL: DIQMTQSPSSLSASVGDRVTITCSATQDISNYLNWYQQKPGKAPKLLIYYTTNLHSGVPSRFSGSGSGTDFTLTISSLQPEDFATYYCQQYYKLPWTFGQGTKLEIKR | 8.11 |
| AB200-R1a-Fab_Vk19 (Fab, V domains shown) VH: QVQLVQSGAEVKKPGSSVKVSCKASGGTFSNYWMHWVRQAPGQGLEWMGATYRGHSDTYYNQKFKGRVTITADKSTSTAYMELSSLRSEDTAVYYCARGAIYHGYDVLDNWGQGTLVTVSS VL: DIQMTQSPSSLSASVGDRVTITCSASNDISNYINWYQQKPGKAPKLLIYYTSNLHSGVPSRFSGSGSGTDFTLTISSLQPEDFATYYCQQFRKLPWTFGQGTKLEIKR | 8.24 |
| AB200-R1a-Fab_Vk32 (Fab, V domains shown) VH: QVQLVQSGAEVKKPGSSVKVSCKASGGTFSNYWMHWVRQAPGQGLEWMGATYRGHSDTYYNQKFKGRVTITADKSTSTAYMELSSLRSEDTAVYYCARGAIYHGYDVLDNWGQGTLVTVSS VL: DIQMTQSPSSLSASVGDRVTITCSASQDLSNYLNWYQQKPGKAPKLLIYYTSSLHSGVPSRFSGSGSGTDFTLTISSLQPEDFATYYCQQYRKTPWTFGQGTKLEIKR | 7.35 |
